# TESTED ON: RPS6KA4 KD2 (human)
# MEASUREMENT DESCRIPTION: KINOMEscan competition binding
# MEASUREMENT CONTEXT: compound 10.0 µM
PROPERTY: kinase still bound, per cent of control (%)
// return numeric value only (unit: %, not printed)

Known results for compounds:
In [3]: df
Out[3]:
                                smiles_data  units_text  numeric_readout
0  CS(=O)(=O)Nc1ccc(-c2cc(/C=C3\SC(=N)NC3=O)c[nH]c2=O)cc1           %             0.35
1  CS(=O)(=O)Nc1ccc(-c2ccc(/C=C3\SC(=N)NC3=O)o2)c(O)c1           %               30
2  NC1=N/C(=C\c2ccc(-c3ccc(S(N)(=O)=O)cc3)o2)C(=O)N1           %               14
3  N=C1NC(=O)/C(=C/c2c[nH]c(=O)c(-c3ccc4cc[nH]c4c3)c2)S1           %              8.8
4  N=C1NC(=O)/C(=C/c2c[nH]c(=O)c(-c3ccc(N4CCNCC4)nc3)c2)S1           %              0.1
5  CN1CCN(c2ccc(C(=O)Nc3ncc4c(n3)N(C)c3ccccc3C(=O)N4C)cc2)CC1           %               98

**Q:** Provide measured kinase still bound, per cent of control value, entry: `N=C1NC(=O)/C(=C/c2ccc(-c3ccc(C(N)=O)cc3O)o2)S1`
**A:** 0.75

**Q:** Find the measured kinase still bound, per cent of control of `O=C1NC(=O)/C(=C/c2cc(-c3ccc(N4CCNCC4)nc3)c[nH]c2=O)S1` and report it.
**A:** 3.2

**Q:** Provide only the value of recorded kinase still bound, per cent of control for `O=C1NC(=O)/C(=C/c2c[nH]c(=O)c(-c3ccc(C(=O)Nc4ccc(N5CCNCC5)cc4)cc3)c2)S1`
**A:** 0.95

**Q:** Using the record for `N=C1NC(=O)/C(=C/c2ccc(-c3ccccc3O)o2)S1` , state its measured kinase still bound, per cent of control.
**A:** 2.2

**Q:** Give the reported kinase still bound, per cent of control for this compound. `COc1cc(N2CCN(C)CC2)ccc1Nc1ncc2c(n1)N1CCC[C@H]1CC(=O)N2C`
**A:** 33

**Q:** Supply reported kinase still bound, per cent of control belonging to this compound: `CS(=O)(=O)Nc1ccc(-c2ncc(/C=C3\SC(=N)NC3=O)s2)cc1`
**A:** 1.2

**Q:** Input `NS(=O)(=O)c1ccc(-c2ccc(/C=C3\SC(=O)NC3=O)o2)cc1` , output reported kinase still bound, per cent of control.
**A:** 9.9

**Q:** Give the value of kinase still bound, per cent of control reported for the following: `O=C1NC(=O)/C(=C/c2c[nH]c(=O)c(-c3ccc(N4CCNCC4)nc3)c2)S1`
**A:** 3.2

**Q:** # return recorded kinase still bound, per cent of control for entry `CC(=O)Nc1ccc(-c2ccc(/C=C3\SC(=N)NC3=O)o2)c(O)c1`
**A:** 29

**Q:** # return recorded kinase still bound, per cent of control for input `CN1C(=O)c2ccccc2N(C)c2nc(Nc3ccc(N4CCC(O)CC4)cc3)ncc21`
**A:** 89
